Item-by-item account of growth
tested on: ACHN renal; assay: NCI-60 one-dose screen, 48 h (100 = growth as untreated, 0 = no growth, -100 = all killed); settings: 10 µM unless noted
About 83,000 compounds went through this panel and 20% of them were active in at least one assay; those are over-represented in the sample as a whole.
State the answer as a number, implicitly in %.

Solved cases (4 shown):
COc1cc(/C=C2\C(=O)N(CCCOc3cc(O)c4c(=O)cc(-c5ccccc5)oc4c3)c3ccccc32)cc(OC)c1O :: 93.3
CC(=O)Nc1sc2c(c1-c1nc3ccccc3s1)CNC2 :: 9.91
Nc1nc(N(Cc2ccccc2)c2ccccc2)c2cn[nH]c2n1 :: 71.2
COC(=O)/C=C1/SC(=Nc2ccc(F)cc2)N(CCc2c[nH]c3ccc(O)cc23)C1=O :: 33.8

Kindly consider the entry below.
input: Report growth for `N#Cc1c(-c2cccc(Cl)c2)cc(-c2cccnc2)[nH]c1=O` please.
output: 89

----------
test system: SN12C renal; assay: NCI-60 one-dose screen, 48 h (100 = growth as untreated, 0 = no growth, -100 = all killed); settings: 10 µM unless noted
This is part of a sample that, as a whole, favours compounds with a hit. Of some 83,000 tested, about 20% had one in any assay. Active and inactive are the calls of the source. How the source made its calls: active means growth percent below 10; inactive means the rest.
Listing: growth of selected compounds

input: Which growth reading was recorded for the compound `O=S(=O)(NCCNc1nccc(-c2c(-c3ccc(F)c(O)c3)nc3sccn23)n1)c1ccc(Cl)cc1` ?
output: 26.3% (inactive)

----------
Readings of growth for the listed molecules
system: 786-0 renal; experiment: NCI-60 one-dose screen, 48 h (100 = growth as untreated, 0 = no growth, -100 = all killed); settings: 10 µM unless noted
Compounds without any hit were thinned out: in the full panel of roughly 83,000, 20% have a hit.
Value expressed in %; do not type the unit.

input: Please look up its growth: `c1ccc(-c2nc3ccccc3[nH]2)c(OCCCCCOc2ccccc2-c2nc3ccccc3[nH]2)c1`
output: 93

input: Bench note: what growth did `O=C(Cc1ccc(/C=C/C(=O)c2ncc[nH]2)cc1)Nc1cc(F)c(F)c(F)c1` show?
output: 8.88

----------
system: EKVX NSCLC; experiment: NCI-60 one-dose screen, 48 h; settings: 10 µM unless noted
The panel holds about 83,000 compounds, 20% with a hit somewhere; the sample as a whole holds those more often. Calls of active or inactive are those of the source. How the source made its calls: active means growth percent below 10; inactive means the rest.
Give your call using only these classes: active, inactive

CCOC(=O)CNC1=C(Cl)C(=O)N(Cc2ccc(Cl)cc2)C1=O :: inactive
CSc1ccc(N2C(=N)C(=S)N(c3ccc(C)cc3)C2=O)cc1 :: inactive
C=C(C)[C@@H]1CC[C@]2(C)[C@H](C=CC3=C4C[C@@](C)(CO)CC[C@]4(C)CC[C@]32C)[C@@]1(C)CCCN :: inactive
CCOC(=O)CC[C@H](NC(=O)c1ccc(N(C)Cc2cnc3nc(N)nc(N)c3n2)c2ccccc12)C(=O)OCC :: inactive
COc1ccccc1S(=O)(=O)Nc1ccc2c3c(cc(CCC(=O)NCCCCNc4cccc5c4C(=O)N(C4CCC(=O)NC4=O)C5=O)cc13)C(=O)N2C (stereo unspecified) :: inactive
Cc1sc2nc(NCCN)[nH]c(=O)c2c1C :: inactive
CC1(C)N=C(N)N=C(N)N1c1ccc(S(=O)(=O)Nc2nccs2)cc1 :: inactive
COc1ccc(C(=O)Nc2ncc(Cc3ccc(Cl)cc3)s2)cc1 :: inactive

input: # lookup: test call for `Cc1c2ccccc2nc2cc3c(cc12)[C@H]1CC[C@]2(C)C(=O)CC[C@H]2[C@@H]1CC3`
output: inactive

input: Hi, do you know how `C=C[C@@]1(C)CC(=O)[C@@H](C(C)(C)c2cn(C)c3ccc(Br)cc23)C[C@@H]1O[Si](C)(C)C(C)(C)C` came out in this test?
output: inactive

input: How was `O=S(O)c1cc(Cl)cc(Cl)c1OCc1ccccc1` classified in this test?
output: inactive

----------
tested on: UO-31 renal; assay: NCI-60 one-dose screen, 48 h (100 = growth as untreated, 0 = no growth, -100 = all killed); settings: 10 µM unless noted
Compounds without any hit were thinned out: in the full panel of roughly 83,000, 20% have a hit.
metric_name: growth (%)
Dear colleague, please return just the value in %, with no unit written.

# annotated cases, reported growth shown
COc1ccc2c(O)c(/C=C3\N=Nc4ncccc43)oc2c1C[C@@H]1CCNC[C@H]1F :: -14.5
COC1/C=C/OC2(C)Oc3c(C)c(O)c4c(O)c(c(/C=N/N(c5ccccc5)c5ccccc5)c(O)c4c3C2=O)NC(=O)C(C)=C/C=C/C(C)C(O)C(C)C(O)C(C)C(OC(C)=O)C1C (centres undefined) :: 65.8
COc1ccc(CNc2ccc3nc(NC(=O)CN4CCCCCC4)sc3c2)cc1 :: 80.6
Cc1ccc(OCCOCCOCCOc2ccc(C)n(O)c2=S)c(=S)n1O :: 42
COc1ccc(C2[C@@H](Cl)C(=O)N2c2cc(OC)c(OC)c(OC)c2)cc1Cl (some centres undefined) :: 45.3

input: Need growth, item `NC(=O)c1ccccc1OCC(=O)Nc1ccc(Cl)c(Cl)c1`
output: 84.1

input: Which value of growth has been reported for `Cc1cn(C)cn1` in the records?
output: 82.5

input: Report growth for `Cn1cc(-c2nc3c(F)cc4[nH]ncc4c3c3c2CCCC3)c(C(F)(F)F)n1` please.
output: 18.1

input: // growth lookup, key: `Cc1cc(O)c(=O)cc2c1C[C@H]1CC(C)(C)/C=C/C[C@]3(C)Oc4cc(=O)c(O)cc(C)c4C[C@H]3C[C@H](O)[C@@]1(C)O2`
output: -3.55

----------
tested on: T-47D breast; experiment: NCI-60 one-dose screen, 48 h (100 = growth as untreated, 0 = no growth, -100 = all killed); details: 10 µM unless noted
Compounds without any hit were thinned out: in the full panel of roughly 83,000, 20% have a hit.
Please note: True applies when growth is 60% or greater, and False applies otherwise.

N#Cc1c(-c2ccc(Br)cc2)nc2c(N=Nc3ccc(S(N)(=O)=O)cc3)c(N)nn2c1N :: False
COc1cc(N2C(=O)[C@H](Cl)C2c2ccc(SC)cc2)cc(OC)c1OC (some centres undefined) :: False

input: Hi, just wondering whether `Cc1cc(=O)oc2cc(Oc3nc(Br)cn4c(Br)cnc34)ccc12` shows growth of 60% or higher.
output: False

input: Could you please find out whether `Cc1cc(=O)n(C(=S)Nc2ccc(Cl)cc2)c2cc(O)ccc12` has growth that meets 60% or exceeds it?
output: True

input: Exam item: decide whether the reported growth for CS(=O)/C(C#N)=C\C=C\c1cccc(Cl)c1 (centres undefined) is at least 60%.
output: False

input: For this molecule, is measured growth 60% or higher? Nc1ncnc2c1N=C(c1ccc(Cl)cc1)CC(c1cccc(Nc3ccnc4cc(Cl)ccc34)c1)N2 (centres undefined)
output: True

input: Kindly determine if growth recorded for C=C(C)[C@@H]1CC[C@]2(COC3CCCCO3)CC[C@]3(C)[C@H](CC[C@@H]4[C@@]5(C)C=C(C=O)C(=O)C(C)(C)[C@@H]5CC[C@]43C)[C@@H]12 (some centres undefined) is above or exactly 60%.
output: False

----------
Recorded growth by entry
tested on: MALME-3M melanoma; experiment: NCI-60 one-dose screen, 48 h (100 = growth as untreated, 0 = no growth, -100 = all killed); conditions: 10 µM unless noted
About 83,000 compounds went through this panel and 20% of them were active in at least one assay; those are over-represented in the sample as a whole.
Could you give me the number in %? Just the number is fine.

COC(=O)/C=C1/SC(=Nc2ccc(F)cc2)N(CCc2c[nH]c3ccc(O)cc23)C1=O :: 58.9
N#CC1=C(N)Oc2c(sc3c(F)cccc23)C1c1ccc([N+](=O)[O-])cc1 (centres undefined) :: -24.3
NS(=O)(=O)c1ccc(C(=O)NN2C(=O)c3ccccc3C2=O)cc1 :: 109

input: Form entry - test system: MALME-3M melanoma; read-out: growth; molecule: `C=C1C(=O)O[C@H]2[C@H]1CC/C(COC(=O)NCc1ccc(Cn3c(=O)sn(-c4ccc(I)cc4)c3=O)cc1)=C\CC[C@@]1(C)O[C@@H]21`
output: 82.3

input: Provide the documented growth with MALME-3M melanoma as the system for `COc1cc(/C=C/C(=O)c2cccc(-n3cc(-c4ccc(Cl)cc4)[nH]c3=O)c2)ccc1O`
output: 87.8

input: Lab note: need growth with MALME-3M melanoma for entry [N-]=[N+]=NCC1OC(n2cnc3c(NC(=O)Nc4ccccc4)ncnc32)C2OC(=O)CC12 (centres undefined) , please look it up.
output: 96.9

input: growth of `CNC(=O)c1cc(Oc2ccc3c(c2)sc2nc(-c4ccc(NC(=O)[C@@H](NC(=O)OC)C(C)C)cc4)cn23)ccn1` on MALME-3M melanoma?
output: 49.4

input: I'm curious: which growth was measured for `CN(C)CCC(CCN(C)C)(C(=O)O)c1ccccc1` tested on MALME-3M melanoma?
output: 97.5

input: Give MALME-3M melanoma growth for `O=C(/C=C/c1ccccc1)N(C1CCCCC1)C1CCCCC1`
output: 104

The reported numbers originate from PubChem BioAssay (NCI).
